- System: Salmonella enterica (Gram-negative)
- measurement.protocol: Microbial kill study, log reduction of Salmonella enterica
- Assay type: cell-based
- condition: 10 min
The following compounds are listed with their measured Log Reduction S. enterica (G-) 200 ppm, 10 min values.
The response must contain the number and no unit.

[[record]]
compound = "CCCCCCCCCCCCCC(=O)NC(CO)Cc1c[nH]cn1 (stereo not shown) [C14 H O]"
value_reported = 0.00

[[record]]
compound = "CCCCCCCC(=O)NC(CO)Cc1c[nH]cn1 (stereo not shown) [C8 H O]"
value_reported = 0.00

[[record]]
compound = "CCCCCCCCCCCC(=O)NC(CO)CCCNC(=N)N (stereo not shown) [C12 R O, lauryl argininol alcohol]"
value_reported = 6.20


Exercise: Any idea what Log Reduction S. enterica (G-) 200 ppm, 10 min was measured for CCCCCCCCCCCC(=O)NC(CO)Cc1c[nH]cn1 (stereo not shown) [C12 H O] ?
Key: 0.00

Exercise: Likewise for CCCCCCCCCC(=O)NC(CO)CCCNC(=N)N (stereo not shown) [C10 R O] ?
Key: 6.30

Exercise: Continue with CCCCCCCCCC(=O)NC(CO)Cc1c[nH]cn1 (stereo not shown) [C10 H O]
Key: 0.00

Exercise: Let us now turn to CCCCCCCCCCCCCCCC(=O)NC(CO)CCCNC(=N)N (stereo not shown) [C16 R O]
Key: 2.86

Exercise: Another compound to look at: CCCCCCCCCCCC(=O)NC(CO)CCCCN (stereo not shown) [C12 K O]
Key: 6.16

Exercise: Same question, CCCCCCCCCCCCCC(=O)NC(CO)CCCNC(=N)N (stereo not shown) [C14 R O] this time
Key: 6.11

Exercise: Okay, and CCCCCCCC(=O)NC(CO)CCCNC(=N)N (stereo not shown) [C8 R O] ?
Key: 0.00
